For each entry below, report its Heart % dose/g value.
assay: Biodistribution of 99mTc(N)(X)(DTC)+ heterocomplexes in rats; assay type: in vivo, male Spraque-Dawley rats (SD rats); conditions: 4 hr after injection

Look over these answered cases.
| compound | reportedMeasurement |
| --- | --- |
| COCCN1CC[P+](c2ccccc2)(c2ccccc2)[99Tc-2]2(#[N])([NH]N(C)C(SC)=[S+]2)[P+](c2ccccc2)(c2ccccc2)CC1 [^99mTc(N)(PNP2)(DTC)^+] | 0.506 ± 0.04 % dose/g |
| CSC1=[S+][99Tc-2]2(#[N])([NH]N1C)[P+](c1ccccc1)(c1ccccc1)CCOCC[P+]2(c1ccccc1)c1ccccc1 [^99mTc(N)(POP)(DTC)^+] | 0.303 ± 0.01 % dose/g |
| COCCC[P]1(CCCOC)CCN(CCOC)CC[P](CCCOC)(CCCOC)[99Tc+]12(#[N])[NH]N(C)C(SC)=[S]2 [^99mTc(N)(PNP3)(DTC)^+] | 2.503 ± 0.13 % dose/g |

For reference, reported Heart % dose/g for CCCN1CC[P+](c2ccccc2)(c2ccccc2)[99Tc-2]2(#[N])([NH]N(C)C(SC)=[S+]2)[P+](c2ccccc2)(c2ccccc2)CC1 [^99mTc(N)(PNP1)(DTC)^+] stands at 0.382 ± 0.04 % dose/g

* * *

For each entry below, report its Brain % dose/g value.
test: Biodistribution of 99mTc(N)(X)(DTC)+ heterocomplexes in rats; type: in vivo, male Spraque-Dawley rats (SD rats); settings: 4 hr after injection
Numbers only, in % dose/g.

Look over these answered cases.
| compound | Brain % dose/g [% dose/g] |
| --- | --- |
| COCCC[P]1(CCCOC)CCN(CCOC)CC[P](CCCOC)(CCCOC)[99Tc+]12(#[N])[NH]N(C)C(SC)=[S]2 [^99mTc(N)(PNP3)(DTC)^+] | 0.009 |
| COCCN1CC[P+](c2ccccc2)(c2ccccc2)[99Tc-2]2(#[N])([NH]N(C)C(SC)=[S+]2)[P+](c2ccccc2)(c2ccccc2)CC1 [^99mTc(N)(PNP2)(DTC)^+] | 0.018 |
| CSC1=[S+][99Tc-2]2(#[N])([NH]N1C)[P+](c1ccccc1)(c1ccccc1)CCOCC[P+]2(c1ccccc1)c1ccccc1 [^99mTc(N)(POP)(DTC)^+] | 0.01 |

Next compound, Brain % dose/g to be filled in.
For reference, reported Brain % dose/g for CCCN1CC[P+](c2ccccc2)(c2ccccc2)[99Tc-2]2(#[N])([NH]N(C)C(SC)=[S+]2)[P+](c2ccccc2)(c2ccccc2)CC1 [^99mTc(N)(PNP1)(DTC)^+] stands at 0.021

* * *

experiment: Biodistribution of 99mTc(N)(X)(DTC)+ heterocomplexes in rats; assay type: in vivo, male Spraque-Dawley rats (SD rats); conditions: 0 min after injection
For each entry below, report its Brain % dose/g value.
One number for each entry, in % dose/g.

# batch: return Brain % dose/g for each of the 3 molecules below
1. CSC1=[S+][99Tc-2]2(#[N])([NH]N1C)[P+](c1ccccc1)(c1ccccc1)CCOCC[P+]2(c1ccccc1)c1ccccc1 [^99mTc(N)(POP)(DTC)^+]
2. COCCN1CC[P+](c2ccccc2)(c2ccccc2)[99Tc-2]2(#[N])([NH]N(C)C(SC)=[S+]2)[P+](c2ccccc2)(c2ccccc2)CC1 [^99mTc(N)(PNP2)(DTC)^+]
3. COCCC[P]1(CCCOC)CCN(CCOC)CC[P](CCCOC)(CCCOC)[99Tc+]12(#[N])[NH]N(C)C(SC)=[S]2 [^99mTc(N)(PNP3)(DTC)^+]

Output line:
1: 0.142; 2: 0.120; 3: 0.096

For reference, reported Brain % dose/g for CCCN1CC[P+](c2ccccc2)(c2ccccc2)[99Tc-2]2(#[N])([NH]N(C)C(SC)=[S+]2)[P+](c2ccccc2)(c2ccccc2)CC1 [^99mTc(N)(PNP1)(DTC)^+] stands at 0.143
